Test system: Acinetobacter baumannii
Assay: Antibacterial activity against Acinetobacter baumannii ATCC19606 incubated for 18 to 20 hrs in presence of 1% of human serum by microbroth dilution method
Type: functional
Details: time 18-20 hrs
experimental.endpoint: MIC95 (µM)

1. CCCCc1ccc(S(=O)(=O)Nc2ccc(NC(=O)CCC(=O)Nc3ccc(NS(=O)(=O)c4ccc(CCCC)cn4)c(C(=O)O)c3)cc2C(=O)O)nc1
2. CCCCc1ccc(S(=O)(=O)Nc2ccc(NC/C=C\CNc3ccc(NS(=O)(=O)c4ccc(CCCC)cc4)c(C(=O)O)c3)cc2C(=O)O)cc1
query: Name the one with the greater MIC95 value, either 1 or 2 as given. API: response body contains the label of the selected item.
result: 1

a. CCCCc1ccc(S(=O)(=O)Nc2ccc(NC(=O)CCCOc3ccc(NS(=O)(=O)c4ccc(CCCC)cc4)c(C(=O)O)c3)cc2C(=O)O)cc1
b. Cc1c(S(=O)(=O)Nc2ccc(NC(=O)CCCOc3ccc(NS(=O)(=O)c4cnn(-c5ccc(Cl)cc5)c4C)c(C(=O)O)c3)cc2C(=O)O)cnn1-c1ccc(Cl)cc1
query: Given a and given b , which shows the smaller recorded MIC95? Kindly state the label of the option you pick.
result: b
(b: 1.56 µM, a: 6.25 µM)
